method: Effect on erythrocyte shape in human erythrocytes assessed as echinocytes at 50 ug/mL after 48 hrs
Type: ADME, cell-based
observed-property: Activity (%)

Worked cases, Activity given:
Sample C=C[C@@]1(O)CC[C@H]2[C@@](O)(CC[C@H]3C(C)(C)CCC[C@@]32C)C1 — what was its Activity?
3

Please do the same for CCO[C@@]12CC[C@H]3[C@@](CC[C@H]4C(C)(C)CCC[C@@]43C)(C1)OC(=O)C2 as well.
2

a. CC1(C)CCC[C@@]2(C)[C@H]1CC[C@@]1(O)CC(CCO)CC[C@@H]12 (stereo partly specified)
b. CCOC(=O)/C=C1\CC[C@H]2[C@@](O)(CC[C@H]3C(C)(C)CCC[C@@]32C)C1
c. CCOC(=O)/C=C1/CC[C@H]2[C@@](O)(CC[C@H]3C(C)(C)CCC[C@@]32C)C1
d. CC1(C)CCC[C@@]2(C)[C@H]1CC[C@@]1(O)C/C(=C\CO)CC[C@@H]12
Your job: order these 4 records by Activity, ascending. // list labels; follow requested order
c, d, b, a
(c: 0%, d: 1%, b: 2%, a: 3%)

---

method: Effect on erythrocyte shape in human erythrocytes assessed as echinocytes at 100 ug/mL after 48 hrs
Assay type: ADME, cell-based
observed-property: Activity (%)

A selection of reference data follows.
Recorded Activity for CCO[C@@]12CC[C@H]3[C@@](CC[C@H]4C(C)(C)CCC[C@@]43C)(C1)OC(=O)C2 , please?
9

How about this compound: CCOC(=O)/C=C1\CC[C@H]2[C@@](O)(CC[C@H]3C(C)(C)CCC[C@@]32C)C1
0

For CC1(C)CCC[C@@]2(C)[C@H]1CC[C@@]1(O)CC(CCO)CC[C@@H]12 (stereo partly specified) then?
2

A. CCOC(=O)/C=C1/CC[C@H]2[C@@](O)(CC[C@H]3C(C)(C)CCC[C@@]32C)C1
B. C=C[C@@]1(O)CC[C@H]2[C@@](O)(CC[C@H]3C(C)(C)CCC[C@@]32C)C1
Of the two listed items, which has the higher Activity? First: A Second: B Write down the label of the entry you select.
B
(B: 2%, A: 0%)

---

method: Effect on erythrocyte shape in human erythrocytes assessed as stomatocytes at 50 ug/mL after 48 hrs
Assay type: ADME, cell-based
observed-property: Activity (%)

Which Activity reading was recorded for the compound CC1(C)CCC[C@@]2(C)[C@H]1CC[C@@]1(O)CC(CCO)CC[C@@H]12 (stereo partly specified) ?
1

// query: CCOC(=O)/C=C1\CC[C@H]2[C@@](O)(CC[C@H]3C(C)(C)CCC[C@@]32C)C1
2

// same read-out, input: C=C[C@@]1(O)CC[C@H]2[C@@](O)(CC[C@H]3C(C)(C)CCC[C@@]32C)C1
1

a. CCO[C@@]12CC[C@H]3[C@@](CC[C@H]4C(C)(C)CCC[C@@]43C)(C1)OC(=O)C2
b. CC1(C)CCC[C@@]2(C)[C@H]1CC[C@@]1(O)C/C(=C\CO)CC[C@@H]12
c. CCOC(=O)/C=C1/CC[C@H]2[C@@](O)(CC[C@H]3C(C)(C)CCC[C@@]32C)C1
// ascending sort on recorded Activity Would you mind listing the labels in the order requested?
a, b, c

---

method: Effect on erythrocyte shape in human erythrocytes assessed as stomatocytes at 100 ug/mL after 48 hrs
Format: ADME, cell-based
observed-property: Activity (%)

I. CCO[C@@]12CC[C@H]3[C@@](CC[C@H]4C(C)(C)CCC[C@@]43C)(C1)OC(=O)C2
II. C=C[C@@]1(O)CC[C@H]2[C@@](O)(CC[C@H]3C(C)(C)CCC[C@@]32C)C1
III. CC1(C)CCC[C@@]2(C)[C@H]1CC[C@@]1(O)C/C(=C\CO)CC[C@@H]12
Rank the molecules listed above in increasing order of Activity. State the ranking by listing the labels in the requested order.
I, II, III
(I: 0%, II: 1%, III: 64%)

I. CC1(C)CCC[C@@]2(C)[C@H]1CC[C@@]1(O)CC(CCO)CC[C@@H]12 (stereo not given in full)
II. CCOC(=O)/C=C1\CC[C@H]2[C@@](O)(CC[C@H]3C(C)(C)CCC[C@@]32C)C1
Just curious, which one has the larger Activity reading, I or II ? Answer format: the label of the selected item.
II
(II: 8%, I: 3%)
